All values here come from patent US8710228B2.

- assayed.system: ROCKII or ROKα (Rattus norvegicus)
- Construct: purchased Upstate 14-451
- protocol.description: Determination of Rho kinase inhibition (33P-ATP, Streptavidin Flash Plate)
- Type: biochemical
- protocol.conditions: ATP 40 μM, activity denoted as pIC50 classes
quantity.kind: IC50

Use the examples below as a reference point.
c1cncc(CN[C@H]2CC[C@@H](Oc3ccc4cnccc4c3)CC2)c1: +++++ (6.0 ≦ pIC50)
CC(C)N[C@H]1CC[C@@H](Oc2ccc3cnccc3c2)CC1: +++++ (6.0 ≦ pIC50)
CC(C)CN(C)C1CCC(Oc2ccc3cnccc3c2)CC1.O=C(O)C(F)(F)F (mixture of isomers): ++++ (5.0 ≦ pIC50 < 6.0)
O=C(O)C(F)(F)F.c1csc(-c2nc(CNC3CCC(Oc4ccc5cnccc5c4)CC3)cs2)c1 (mixture of isomers): ++++ (5.0 ≦ pIC50 < 6.0)
N[C@H]1CC[C@H](Oc2c(Cl)cc3cnccc3c2Cl)CC1: +++++ (6.0 ≦ pIC50)

// switching to the query compound
Query: IC50; subject: `CN(C)/C=N/S(=O)(=O)c1cc(CN[C@H]2CC[C@@H](Oc3ccc4cnccc4c3Cl)CC2)ccc1Cl` +++++ (6.0 ≦ pIC50)

* * *

- assayed.system: ROCKII or ROKα (Rattus norvegicus, UniProt Q62868)
- Construct: purchased Upstate 14-451
- Sequence (Q62868 11-552 limits assumed): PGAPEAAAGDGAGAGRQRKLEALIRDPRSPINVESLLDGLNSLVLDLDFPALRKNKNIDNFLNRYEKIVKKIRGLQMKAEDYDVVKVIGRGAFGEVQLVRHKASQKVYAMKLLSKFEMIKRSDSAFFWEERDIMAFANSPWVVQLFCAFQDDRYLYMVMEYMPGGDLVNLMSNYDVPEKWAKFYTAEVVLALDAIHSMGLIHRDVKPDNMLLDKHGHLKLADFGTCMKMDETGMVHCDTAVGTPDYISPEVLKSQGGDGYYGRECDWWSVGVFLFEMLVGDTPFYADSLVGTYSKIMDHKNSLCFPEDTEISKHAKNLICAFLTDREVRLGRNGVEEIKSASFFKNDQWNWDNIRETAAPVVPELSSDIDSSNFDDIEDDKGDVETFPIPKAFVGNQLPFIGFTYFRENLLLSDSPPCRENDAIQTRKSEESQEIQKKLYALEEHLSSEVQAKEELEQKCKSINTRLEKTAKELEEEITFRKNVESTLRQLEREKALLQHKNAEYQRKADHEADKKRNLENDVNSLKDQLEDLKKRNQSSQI
- protocol.description: Determination of Rho kinase inhibition (33P-ATP, Streptavidin Flash Plate)
- Type: biochemical
- protocol.conditions: ATP 40 μM, activity denoted as pIC50 classes
quantity.kind: IC50

CCOC(=O)N1CCN(C2CCC(Oc3ccc4cnccc4c3)CC2)CC1.O=C(O)C(F)(F)F (stereo not shown): ++++ (5.0 ≦ pIC50 < 6.0)
N[C@H]1CC[C@@H](Oc2ccc3cncc(Cl)c3c2)CC1: +++++ (6.0 ≦ pIC50)
N[C@H]1CC[C@@H](Oc2ccc3cnc(Nc4cccc(Cl)c4)cc3c2)CC1: ++++ (5.0 ≦ pIC50 < 6.0)
CN(Cc1cnn(-c2ccc(F)cc2)c1)C1CCC(Oc2ccc3cnccc3c2)CC1.O=C(O)C(F)(F)F (mixture of isomers): ++++ (5.0 ≦ pIC50 < 6.0)
N[C@H]1CC[C@@H](Oc2ccc3cnccc3c2Br)CC1: +++++ (6.0 ≦ pIC50)

Query: IC50; subject: O=C(O)C(F)(F)F.c1ccc2c(CNC3CCC(Oc4ccc5cnccc5c4)CC3)cccc2c1 (mixture of isomers) ++++ (5.0 ≦ pIC50 < 6.0)

Query: IC50; subject: `c1cc2cc(O[C@H]3CC[C@@H](NC4CC4)CC3)ccc2cn1` +++++ (6.0 ≦ pIC50)

Query: IC50; subject: `CC(=O)Nc1ccc(CN[C@H]2CC[C@@H](Oc3ccc4cnccc4c3)CC2)cc1` +++++ (6.0 ≦ pIC50)
